B1: OAS1 (parent)
chain: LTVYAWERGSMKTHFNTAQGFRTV

variants of: B1; assay: protein stability index of a GFP-peptide fusion (GPS, HEK-293T) (PSI 1-6); higher = more stable; settings: c terminus: a fixed tail appended;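 also: lentivirally expressed fusions sorted by FACS into six bins by GFP to DsRed ratio, PSI derived from sequencing read proportions per bin multiplied by bin number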
met means recorded protein stability index is 2 or above; not met means it is below 2.

The examples below pair each entry with its known result.
>  <biosequence>
LTVYAWERGSMKTHFNTAQAFRTV [G20A]

>  <label class>
met

$$$$
>  <biosequence>
LTVYAWERGSMKTHFNTAQGYRTV [F21Y]

>  <label class>
met

$$$$
>  <biosequence>
LTVYAWERGSMKTHFNTAQGNRTV [F21N]

>  <label class>
met

$$$$
>  <biosequence>
LTVYAWERGSMKTHFNTAQGDRTV [F21D]

>  <label class>
met

$$$$
>  <biosequence>
LTVYAWERGSMKTHFTTAQGFRTV [N16T]

>  <label class>
met

$$$$

Problem: # bool: protein stability index of LTVYAWERGSMKHHFNTAQGFRTV [T13H] >= 2
Result: not met

Problem: # bool: protein stability index of LTVYAWERGSMDTHFNTAQGFRTV [K12D] >= 2
Result: met

Problem: # bool: protein stability index of LTVYAWEKGSMKTHFNTAQGFRTV [R8K] >= 2
Result: not met

Problem: # bool: protein stability index of LTVYAWERDSMKTHFNTAQGFRTV [G9D] >= 2
Result: met

Problem: # bool: protein stability index of LTVYAWERGSMKTHFNTAQGFRDV [T23D] >= 2
Result: met

Problem: # bool: protein stability index of LTVYAWERESMKTHFNTAQGFRTV [G9E] >= 2
Result: met

Problem: # bool: protein stability index of LTVYAWERGSMKNHFNTAQGFRTV [T13N] >= 2
Result: met

Problem: # bool: protein stability index of LTVYVWERGSMKTHFNTAQGFRTV [A5V] >= 2
Result: met

Problem: # bool: protein stability index of LTVYAWERGSMRTHFNTAQGFRTV [K12R] >= 2
Result: not met
